Protocol Notes: Pseudomonas biofilm growth suppression – PAO1 strain, BacTiter-Glo luminescence, LB-PBS, primary screen (AID 1144)
Test Parameters: P. aeruginosa PAO1 biofilm, 12 h, higher = more signal
Calls of active or inactive are those of the source. The rule behind the calls is not given here.
Reported Endpoint: z-score

Compound	z-score
COC(=O)[C@@]1(Cc2ccc(OC)cc2)[C@H]2c3cc(C(=O)N(C)C)[nH]c3C[C@H]2CN1C(=O)c1ccccc1	0.857 (inactive)
CC(C)[Si](C#CCCc1ccccc1)(O[C@H](c1ccccc1)c1cn(Cc2ccccc2)nn1)C(C)C	-0.778 (inactive)
O=C1NC(=O)C2C1C=CC(C(O)c1ccc(B(O)O)cc1)N2Nc1ccc(Cl)cc1Cl (configuration not stated)	-0.661 (inactive)
C=CCN1Cc2ccccc2[C@H]2OC(c3ccc(OCCCO)cc3)=N[C@@]2(CCS(=O)(=O)c2ccccc2)C1=O	0.477 (inactive)
C=CCNC(=O)[C@H]1[C@@H]2C(=O)O[C@@H](c3ccccc3)[C@@H](c3ccccc3)N2[C@@H](c2ccc(OCCO)cc2)[C@]12C(=O)Nc1ccc(C#CC3(O)CCCCCC3)cc12	0.15 (inactive)

Please fill in: z-score reported for `C[C@]1(C(=O)O)c2ccccc2C(=O)N(Cc2cc(F)cc(C(F)(F)F)c2)[C@H]1c1ccc(CO)cc1` = -2.17 (inactive)

# z-score (compound: `CCCCCCc1nc(Cc2cc(OC)c(OC)c(OC)c2)cc2c1[Si](C(C)C)(C(C)C)O[C@H]2c1ccccc1` ) is 0.129 (inactive)

----------
Examples of compounds with documented composite z-score follow.
Assayed System: Torsin-1A (Homo sapiens) (UniProt O14656)
Sequence (O14656 whole entry, looked up): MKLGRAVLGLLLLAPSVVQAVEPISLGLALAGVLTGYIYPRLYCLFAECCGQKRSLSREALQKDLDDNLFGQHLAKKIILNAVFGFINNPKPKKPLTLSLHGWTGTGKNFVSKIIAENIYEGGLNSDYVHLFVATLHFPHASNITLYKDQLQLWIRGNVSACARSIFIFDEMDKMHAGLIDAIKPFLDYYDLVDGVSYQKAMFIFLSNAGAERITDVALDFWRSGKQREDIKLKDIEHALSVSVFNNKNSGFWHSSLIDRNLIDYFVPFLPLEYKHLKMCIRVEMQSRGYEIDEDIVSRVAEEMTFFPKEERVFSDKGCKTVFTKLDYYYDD
Protocol Notes: TOR1A wild-type binding on microarray – cell lysate, small-molecule microarray, lysate, 635/667 nm, primary screen (AID 1149)
Test Parameters: COS7 hTOR1A-WT lysate, 635 nm fluorescence, higher = more signal
Please give the numeric answer without any surrounding text.

Below: 3 compounds and their reported composite z-score.
                                   compound  reported_endpoint  test_value
0  [N-]=[N+]=Nc1ccccc1C[C@@]1(C(=O)NCC(O)CO)N=C(c2ccc(OCCCO)cc2)O[C@@H]1c1ccccc1 (some centres undefined)  composite z-score       0.744
1  O=C(O)[C@H](Cc1ccccc1)n1cc(C2(O)CCCCC2)nn1  composite z-score       0.221
2  [N-]=[N+]=Nc1ccccc1[C@@H]1OC(c2ccc(OCCCO)cc2)=N[C@]1(CCS(=O)(=O)c1ccccc1)C(=O)NCC(O)CO (some centres undefined)  composite z-score        1.37

// composite z-score value for [N-]=[N+]=NCc1ccccc1[C@@H]1OC(c2ccc(OCCCO)cc2)=N[C@]1(Cc1ccccc1N=[N+]=[N-])C(=O)NCC(O)CO (some centres undefined) : 0.553

----------
Protocol Notes: FRG1 expression reporter modulators in myotubes – cell-based, C2C12 myotubes, firefly/Renilla luciferase, luminescence, FRG1 inhibition for FSHD, primary screen (AID 1084)
Test Parameters: FRG1 promoter luciferase, higher = more signal, called active from +8 up or from −8 down
Reported Endpoint: z-score
// keep it numeric: no unit symbol after the value

Compound	z-score
[N-]=[N+]=Nc1ccccc1C[C@]1(C(=O)N2CCOCC2)N=C(c2ccc(OCCCO)cc2)O[C@H]1c1ccccc1N=[N+]=[N-]	-2.32

// below: z-score requested for another compound
Noted for CC(C)(C)N1CC=CC23O[C@@H]4C=CCOC(=O)[C@@H]4[C@H]2C(=O)N(CCO)[C@@H]3C1=O (stereo partly specified) : its z-score reads 0.639

----------
Protocol Notes: ATP-based viability of Huh7 replicon cells – cell-based, CellTiter-Glo luminescence, basal, 48 h, cytotoxicity control for HCV replication inhibitor project, primary screen (AID 1143);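 note: Huh7 hepatoma cells carrying a hepatitis C replication reporter with no stimulus; test concentration not given here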
Test Parameters: higher = more signal, called active from +8 up or from −8 down
Calls of active or inactive are those of the source.
Reported Endpoint: z-score

Compound	Test Value
CC(C)(C)N1CC=CC23O[C@@H]4/C=C\CCCOC(=O)C4[C@H]2C(=O)N(CCCO)[C@@H]3C1=O (some centres undefined)	0.317 (inactive)
CC(C)(C)N1CC=CC23O[C@@H]4C=CCOC(=O)[C@@H]4[C@H]2C(=O)N(CCO)[C@@H]3C1=O (some centres undefined)	0.262 (inactive)
C[C@@H]1NC(=O)C([C@@H](C)OCc2ccccc2)NC(=O)[C@@]23C(=O)N[C@@H](Cc4ccccc4)C2[C@H](C)[C@@]2(C)O[C@H]2C3/C=C/C/C=C\CNC1=O (some centres undefined)	-0.371 (inactive)

Next compound, please.
For record O=C1C2C=CC(C(O)c3ccc([N+](=O)[O-])cc3)N(Nc3ccccc3F)C2C(=O)N1c1ccccc1 (centres undefined) the listed z-score is -0.631 (inactive)

----------
List of composite z-score values.
Tested on: Noggin (protein binding on small-molecule microarray)
Protocol Notes: small molecules binding Noggin protein – biochemical, 635/667 nm fluorescence, primary screen (AID 1095);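 note: score merges 667 nm feature fluorescence with signal to noise over triplicate slides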
Test Parameters: 635 nm fluorescence, higher = more signal
In your answer, state the number alone without any accompanying words.

>>> print(df.to_string())
                                   compound                            assayed_system  test_value
0  CCOC(=O)C1=CC[C@@H](c2ccc(OC)cc2)N(S(=O)(=O)c2ccc(C)cc2)[C@H]1CC  Noggin (protein binding on small-molecule microarray)      0.0635
1  CN(C)c1ccc(C(O)C2C=CC3C(=O)N(Cc4ccccc4)C(=O)C3N2n2cnnc2)cc1 (configuration not stated)  Noggin (protein binding on small-molecule microarray)       0.359
2  COc1cc(CO)cc(I)c1O[C@H]1C=C(C(=O)NCCO)C[C@@H]2O[C@H]12  Noggin (protein binding on small-molecule microarray)        2.32
3  CC(C)=CCCC=C(C)C(O)C1C=CC2C(=O)N(c3ccccc3)C(=O)C2N1Nc1ccc(C#N)cc1 (configuration not stated)  Noggin (protein binding on small-molecule microarray)      0.0542
4  COC(=O)C1(Cc2ccccc2)C=C2C(=C(C)C(=O)C2C)CN1 (configuration not stated)  Noggin (protein binding on small-molecule microarray)      -0.233

Form: compound = `COC(=O)[C@@]1(Cc2ccc(F)cc2)[C@H]2c3cc(C(=O)N(C)C)n(C)c3C[C@H]2CN1C(=O)c1ccccc1` ; composite z-score = -0.608

// composite z-score lookup, compound = CCC(CC)C(O)C1C=CC2C(=O)N(c3ccccc3)C(=O)C2N1Nc1ccccc1F (configuration not stated) , result: -0.19

composite z-score in this record for `CO[C@H]1O[C@H](CO)[C@@H](OC(=O)Nc2ccccc2-c2ccccc2)[C@H](OC(=O)Nc2ccccc2)[C@H]1OC(=O)Nc1ccccc1` : 1.2

Sample CCCCCC1=C2CNC(CC(C)C)(C(=O)OC)C=C2C(C)C1=O (configuration not stated) ; composite z-score observed: -0.272

Form field composite z-score, entry `C=C(CCCC)/C(=C/C[C@H](OC(=O)c1ccncc1)c1ccccc1OCCO)c1cc(C(=O)OC)ccc1OC` : 0.502

In plain terms, `COC(=O)[C@@]1(Cc2ccc(F)cc2)[C@H]2c3cc(C(=O)N4CCCC4)n(Cc4cc(F)cc5c4OCOC5)c3C[C@H]2CN1C(=O)c1ccccc1` has a documented composite z-score of 0.739

Form field composite z-score, entry `COC(=O)[C@H](Cc1ccc(O)cc1)N[C@@H](/C=C/C1CC1)[C@H](O)Cc1ccccc1` : -0.0001

The reported value for `C=CC[C@@]12N=C(c3ccc(OCCCO)cc3)O[C@@H]1c1ccccc1N(CCC)C2=O` in terms of composite z-score is 0.916

Lookup result for `CCCC=C(CCC)[C@@H](NC(=O)OCC(C)C)c1ccc(C(=O)OC)cc1` ; measured composite z-score: 0.421

----------
Reported composite z-score values for a set of compounds
Protocol Notes: probe aNOTCH3 binding on compound microarray – biochemical, small-molecule microarray, 635/667 nm fluorescence, primary screen (AID 1120);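 note: probe is a biotin-tagged antibody raised against NOTCH3 rather than NOTCH3 protein; score merges spot fluorescence near 667 nm with spot signal to noise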
Test Parameters: higher = more signal
// return just the number, without any unit appended

Compound	Test Value
COC(=O)C(CC#Cc1ccc2c(c1)[C@]1(C(=O)N2)[C@H](C(=O)N2CCc3cc(OC)c(OC)cc3C2)[C@H]2C(=O)O[C@H](c3ccccc3)[C@H](c3ccccc3)N2[C@@H]1c1ccccc1OCCO)C(=O)OC	0.0793

Looking up N#Cc1ccc(NN2C(C(O)C3CC=CCC3)C=CC3C(=O)N(c4ccccc4)C(=O)C32)cc1 (centres undefined) , I see its composite z-score listed as 0.106

Lookup result for NC(=O)N1C(=O)C2C(C1=O)C1C=C(CCCO)C2C(C2CC2)N1Cc1sc2ccccc2c1Cl (centres undefined) ; measured composite z-score: -0.0362

composite z-score reading for O=C1NC(=O)C2C1C=CC(C(O)c1ccc([N+](=O)[O-])cc1)N2Nc1ccccn1 (centres undefined) : -0.173

The measurements presented in this section are drawn from PubChem BioAssay.
